Target: SARS-CoV-2 Spike (SARS-CoV-2), P0DTC2
Assay: SARS-CoV-2 Spike:ACE2 inhibitor screening kit (Example 4)
Field: pIC50. Provide a value for each of the binders that follow.
Numbers only, as −log10 of the molar value.

BINDER	READOUT_NAME	RECORDED_RESULT
NMTQGFWENPGGPTAWDLGK (modifications not checked) [Seq31 (LNCOV-37)]	pIC50	4.60

So what's the measured pIC50 for this one? EQAKTFLDKFNHEAEDLF (modifications not checked) [Seq24 (LNCOV-19)]
6.24

Ref: patent US20230304010A1
